The measurements presented in this section are drawn from paper PMC2756588.

- tgt: Bem1-1, P29366
- Sequence (P29366 55-141): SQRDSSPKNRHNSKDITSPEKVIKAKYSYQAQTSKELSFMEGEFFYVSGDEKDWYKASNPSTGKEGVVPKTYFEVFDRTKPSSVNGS
- assay-info: SPOT array
- conditions-used: median of control spots 4282
metric-name: SPOT intensity

QQNRPLPQLPNRNNR    3
DTFLPPPPPPPSNFE    0
FLIKFTPKFPQSIDH    1
RPVPRRPSQPLNTLS    0
IVNKPLPPLPVAGSS    0

a: ATNVPVAPPPPPASL
b: QFDLKMPSKPIHNLK
Compare a and b and name the one whose reported SPOT intensity is smaller. Mark your selection by writing its label.
b
(b: 0, a: 4)
